Data origin, for the record: ChEMBL document CHEMBL1123504

# Organism: Rattus norvegicus
# Assay Overview: Tested for cumulative contractile concentration -response curves for serotonin in the rat jugular vein.
Attribute: -Log KB
Form field (numeric): enter value without unit.

Worked examples, 3 compounds total:
Request: Name the recorded -Log KB for `CCc1c(C)n(CC)c2ccc(N(C)C)cc12` .
Result: 6.45

Request: Same lookup for `CCc1c(C)[nH]c2ccc(N(C)C)cc12` , please.
Result: 4.93

Request: Same lookup for `CCc1c(C)n(C)c2ccc(N(C)C)cc12` , please.
Result: 6.51

Alright, here's another compound for you.
Request: Name the recorded -Log KB for `CCc1c(C)n(C)c2ccc(NC(=O)Nc3cccc(C(F)(F)F)c3)cc12` .
Result: 5.18
